Every entry's value here was drawn from patent US20250152585A1.

# Kd per record follows
molecular target: full length N-terminally FLAG-tagged PARP1 (Homo sapiens, UniProt P09874); assay: PARP1 probe displacement HTRF assay; settings: read-out: PARP1 HTRF; binned Kd, probe displacement HTRF
Sequence (P09874 whole entry): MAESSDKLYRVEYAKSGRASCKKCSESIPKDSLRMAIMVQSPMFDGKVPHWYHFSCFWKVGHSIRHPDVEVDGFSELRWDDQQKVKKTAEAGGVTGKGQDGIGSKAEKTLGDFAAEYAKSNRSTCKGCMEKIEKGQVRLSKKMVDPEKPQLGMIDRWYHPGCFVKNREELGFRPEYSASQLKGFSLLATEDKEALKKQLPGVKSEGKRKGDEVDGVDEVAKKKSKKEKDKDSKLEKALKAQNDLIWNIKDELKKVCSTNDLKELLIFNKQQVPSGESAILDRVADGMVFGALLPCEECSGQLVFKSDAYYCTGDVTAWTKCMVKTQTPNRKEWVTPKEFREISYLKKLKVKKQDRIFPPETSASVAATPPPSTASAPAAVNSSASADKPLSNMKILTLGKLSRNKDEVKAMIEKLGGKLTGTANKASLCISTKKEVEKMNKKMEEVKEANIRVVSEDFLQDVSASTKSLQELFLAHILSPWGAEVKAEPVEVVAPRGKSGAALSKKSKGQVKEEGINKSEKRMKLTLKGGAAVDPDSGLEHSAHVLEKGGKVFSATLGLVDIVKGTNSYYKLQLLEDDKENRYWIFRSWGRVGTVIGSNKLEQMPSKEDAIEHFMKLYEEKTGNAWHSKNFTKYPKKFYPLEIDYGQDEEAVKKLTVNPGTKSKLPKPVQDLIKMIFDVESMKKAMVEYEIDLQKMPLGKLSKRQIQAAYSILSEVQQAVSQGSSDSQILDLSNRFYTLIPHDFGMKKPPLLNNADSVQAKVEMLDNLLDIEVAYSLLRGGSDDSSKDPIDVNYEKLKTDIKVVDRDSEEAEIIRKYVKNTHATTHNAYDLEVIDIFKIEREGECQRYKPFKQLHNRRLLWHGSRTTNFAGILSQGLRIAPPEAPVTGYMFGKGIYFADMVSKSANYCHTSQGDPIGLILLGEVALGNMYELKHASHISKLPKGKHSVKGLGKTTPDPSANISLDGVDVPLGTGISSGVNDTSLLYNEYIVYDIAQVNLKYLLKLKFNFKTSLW

Guide cases for Kd, answers given:
{"columns": ["Compound", "Test Result"],
 "data": [
  ["CCc1ccc(C2CCN(C3CCN(c4ccc(C(=O)NC)cc4)CC3)C2)[nH]c1=O (single isomer, unassigned) [Compound 355b]", "< 10 nM"],
  ["N#Cc1ccc(N2CCC(N3CCC(c4cc5cccc(F)c5c(=O)[nH]4)C3)CC2)c(F)c1 (single isomer, unassigned) [Compound 356b]", "100 to 1000 nM"],
  ["CNC(=O)c1ccc(N2CCC(N3CCC(F)(c4nc5ccccc5c(=O)[nH]4)C3)CC2)cn1 (single isomer, unassigned) [Compound 328b]", "10 to 100 nM"],
  ["CCc1ccc(C2CCN(C3CCN(c4ccc(C(=O)NC5CC5)nc4C#N)CC3)C2)[nH]c1=O (single isomer, unassigned) [Compound 409a]", "< 10 nM"]
]}

-- ask Requested field: Kd. Item: CNC(=O)c1ccc(N2CCC(N3CCC(c4cc5cccc(F)c5c(=O)[nH]4)C3)CC2)c(F)c1 (single isomer, unassigned) [Compound 371b]
-- reply 10 to 100 nM

-- ask Requested field: Kd. Item: Cc1cnc(-c2ccc(N3CCC(N4CCC(c5nc6ccccc6c(=O)[nH]5)C4)CC3)cn2)n1C (racemic)
-- reply 100 to 1000 nM

-- ask Requested field: Kd. Item: CNC(=O)c1ccc(N2CCC(N3CCC(c4nc5sc(C)c(C)c5c(=O)[nH]4)C3)CC2)cn1 (single isomer, unassigned) [Compound 221b]
-- reply < 10 nM

-- ask Requested field: Kd. Item: CNC(=O)c1ccc(N2CCC(N3CCC(c4cc5ncc(F)cc5c(=O)[nH]4)C3)CC2)c(F)n1 (single isomer, unassigned) [Compound 324b]
-- reply < 10 nM
